Attribution: the Deep4Chem optical property database

Experimental Protocol: solvent given as SMILES
Condition Label: in CS(C)=O
Reported Metric: absorption maximum (nm)
Your answer should be a plain number; it is taken to be in nm.

In the examples that follow, each entry is paired with its recorded absorption maximum.
[
  {
    "Compound": "O=C1C=CC2=Cc3ccccc3B(O)N12",
    "Reported Metric": "absorption maximum",
    "Units Of Measure": "nm",
    "Test Result": 364
  },
  {
    "Compound": "O=C1CCCC2=C1C(c1ccccc1)c1c(c3ccccc3oc1=O)N2 (stereo not drawn)",
    "Reported Metric": "absorption maximum",
    "Units Of Measure": "nm",
    "Test Result": 368
  }
]

Would you kindly look at the next entry?
Lookup result for COc1ccc(-c2nc3c(c4c2-c2ccccc2CC4)-c2ccccc2CC3)cc1 ; measured absorption maximum: 320
